# Tested on: LOX IMVI melanoma
# ASSAY TEXT: NCI-60 one-dose screen, 48 h (100 = growth as untreated, 0 = no growth, -100 = all killed)
# DETAILS: 10 µM unless noted
Compounds without any hit were thinned out: in the full panel of roughly 83,000, 20% have a hit.
ATTRIBUTE MEASURED: growth (%)
Only the number, expressed in %, is required.

>  <COMPOUND>
Cc1ccc(/C=C(\C#N)n2nc3cccc(F)c3n2)cc1

>  <DATA VALUE>
86.2

$$$$

q: What reported growth corresponds to O=c1ccc(N=Nc2ccccc2)ccc1Cl on LOX IMVI melanoma?
a: -77.1

q: What reported growth corresponds to CSc1ncccc1C(=O)OCC(=O)Nc1oc(C)c2c(C)n[nH]c(=O)c12 on LOX IMVI melanoma?
a: 94.5

q: What reported growth corresponds to c1cc2nc(-c3cn[nH]c3)c3c(c2cc1-c1cn[nH]c1)C1CCC3C1 (stereo not given) on LOX IMVI melanoma?
a: 69.1

====

# Test system: MDA-MB-231 breast
# ASSAY TEXT: NCI-60 one-dose screen, 48 h (100 = growth as untreated, 0 = no growth, -100 = all killed)
# DETAILS: 10 µM unless noted
# Method: Cells are grown in 96 well plates and exposed to the test compound for 48 hours. Compounds are tested at a single concentration, which is 10^-5 M for most compounds. The reported endpoint is percent growth (GI% or GIPRCNT), where numbers from 0 - 100% represent growth inhibition, and numbers from -100% - 0 represent cell death. For example, a value of 40 represents 60% growth inhibition. A value of 0 means no net growth occurred over the course of the experiment. […]
Compounds without any hit were thinned out: in the full panel of roughly 83,000, 20% have a hit.
ATTRIBUTE MEASURED: growth (%)
Only the number, expressed in %, is required.

Below are worked cases with known answers.
>  <COMPOUND>
COc1ccc(C(=O)COC(=O)[C@H](C[Se][Se]C[C@H](NC(=O)c2ccc(Br)cc2F)C(=O)OCC(=O)c2ccc(OC)cc2)NC(=O)c2ccc(Br)cc2F)cc1

>  <TESTED ON>
MDA-MB-231 breast

>  <growth / %>
-57.5

$$$$
>  <COMPOUND>
O=C(Nn1c(NCC(=O)N2c3ccccc3Sc3ccccc32)nnc1-c1ccc(O)cc1)c1ccccc1

>  <TESTED ON>
MDA-MB-231 breast

>  <growth / %>
95.3

$$$$
>  <COMPOUND>
NCCOc1ncccc1/C=C1\C2C=CC=CC2C2C=CC(F)=CC12 (stereo not drawn)

>  <TESTED ON>
MDA-MB-231 breast

>  <growth / %>
37.4

$$$$
>  <COMPOUND>
CCN1C(=O)N(CC)C2Nn3c(s/c(=C4\C(=O)N(CC(C)C)c5ccccc54)c3=O)=NC21 (stereo not drawn)

>  <TESTED ON>
MDA-MB-231 breast

>  <growth / %>
19.6

$$$$
>  <COMPOUND>
CCCCCCNC(=O)Oc1ccc(/C(=C(\C)c2ccc(Cl)cc2)c2ccc(OCCN(CC)CC)cc2)cc1

>  <TESTED ON>
MDA-MB-231 breast

>  <growth / %>
65

$$$$

q: For the compound shown here, C=CCNc1ccc2c3c(cccc13)C(=O)N(N1C(=O)c3cccc4cccc(c34)C1=O)C2=O , give the reported growth.
a: 108

q: For the compound shown here, Cc1cccc2c(=O)c3c(sc12)c(NCc1ccccc1)nc1ccccc13 , give the reported growth.
a: 89.4

q: For the compound shown here, Cc1nn(-c2ccccc2)c2c1N=c1s/c(=C\c3ccc(C(F)(F)F)cc3)c(=O)n1CN2 , give the reported growth.
a: 56.2
